- assay system: Voltage-dependent N-type calcium channel subunit alpha-1B (Homo sapiens)
- Sequence (Q00975 whole entry): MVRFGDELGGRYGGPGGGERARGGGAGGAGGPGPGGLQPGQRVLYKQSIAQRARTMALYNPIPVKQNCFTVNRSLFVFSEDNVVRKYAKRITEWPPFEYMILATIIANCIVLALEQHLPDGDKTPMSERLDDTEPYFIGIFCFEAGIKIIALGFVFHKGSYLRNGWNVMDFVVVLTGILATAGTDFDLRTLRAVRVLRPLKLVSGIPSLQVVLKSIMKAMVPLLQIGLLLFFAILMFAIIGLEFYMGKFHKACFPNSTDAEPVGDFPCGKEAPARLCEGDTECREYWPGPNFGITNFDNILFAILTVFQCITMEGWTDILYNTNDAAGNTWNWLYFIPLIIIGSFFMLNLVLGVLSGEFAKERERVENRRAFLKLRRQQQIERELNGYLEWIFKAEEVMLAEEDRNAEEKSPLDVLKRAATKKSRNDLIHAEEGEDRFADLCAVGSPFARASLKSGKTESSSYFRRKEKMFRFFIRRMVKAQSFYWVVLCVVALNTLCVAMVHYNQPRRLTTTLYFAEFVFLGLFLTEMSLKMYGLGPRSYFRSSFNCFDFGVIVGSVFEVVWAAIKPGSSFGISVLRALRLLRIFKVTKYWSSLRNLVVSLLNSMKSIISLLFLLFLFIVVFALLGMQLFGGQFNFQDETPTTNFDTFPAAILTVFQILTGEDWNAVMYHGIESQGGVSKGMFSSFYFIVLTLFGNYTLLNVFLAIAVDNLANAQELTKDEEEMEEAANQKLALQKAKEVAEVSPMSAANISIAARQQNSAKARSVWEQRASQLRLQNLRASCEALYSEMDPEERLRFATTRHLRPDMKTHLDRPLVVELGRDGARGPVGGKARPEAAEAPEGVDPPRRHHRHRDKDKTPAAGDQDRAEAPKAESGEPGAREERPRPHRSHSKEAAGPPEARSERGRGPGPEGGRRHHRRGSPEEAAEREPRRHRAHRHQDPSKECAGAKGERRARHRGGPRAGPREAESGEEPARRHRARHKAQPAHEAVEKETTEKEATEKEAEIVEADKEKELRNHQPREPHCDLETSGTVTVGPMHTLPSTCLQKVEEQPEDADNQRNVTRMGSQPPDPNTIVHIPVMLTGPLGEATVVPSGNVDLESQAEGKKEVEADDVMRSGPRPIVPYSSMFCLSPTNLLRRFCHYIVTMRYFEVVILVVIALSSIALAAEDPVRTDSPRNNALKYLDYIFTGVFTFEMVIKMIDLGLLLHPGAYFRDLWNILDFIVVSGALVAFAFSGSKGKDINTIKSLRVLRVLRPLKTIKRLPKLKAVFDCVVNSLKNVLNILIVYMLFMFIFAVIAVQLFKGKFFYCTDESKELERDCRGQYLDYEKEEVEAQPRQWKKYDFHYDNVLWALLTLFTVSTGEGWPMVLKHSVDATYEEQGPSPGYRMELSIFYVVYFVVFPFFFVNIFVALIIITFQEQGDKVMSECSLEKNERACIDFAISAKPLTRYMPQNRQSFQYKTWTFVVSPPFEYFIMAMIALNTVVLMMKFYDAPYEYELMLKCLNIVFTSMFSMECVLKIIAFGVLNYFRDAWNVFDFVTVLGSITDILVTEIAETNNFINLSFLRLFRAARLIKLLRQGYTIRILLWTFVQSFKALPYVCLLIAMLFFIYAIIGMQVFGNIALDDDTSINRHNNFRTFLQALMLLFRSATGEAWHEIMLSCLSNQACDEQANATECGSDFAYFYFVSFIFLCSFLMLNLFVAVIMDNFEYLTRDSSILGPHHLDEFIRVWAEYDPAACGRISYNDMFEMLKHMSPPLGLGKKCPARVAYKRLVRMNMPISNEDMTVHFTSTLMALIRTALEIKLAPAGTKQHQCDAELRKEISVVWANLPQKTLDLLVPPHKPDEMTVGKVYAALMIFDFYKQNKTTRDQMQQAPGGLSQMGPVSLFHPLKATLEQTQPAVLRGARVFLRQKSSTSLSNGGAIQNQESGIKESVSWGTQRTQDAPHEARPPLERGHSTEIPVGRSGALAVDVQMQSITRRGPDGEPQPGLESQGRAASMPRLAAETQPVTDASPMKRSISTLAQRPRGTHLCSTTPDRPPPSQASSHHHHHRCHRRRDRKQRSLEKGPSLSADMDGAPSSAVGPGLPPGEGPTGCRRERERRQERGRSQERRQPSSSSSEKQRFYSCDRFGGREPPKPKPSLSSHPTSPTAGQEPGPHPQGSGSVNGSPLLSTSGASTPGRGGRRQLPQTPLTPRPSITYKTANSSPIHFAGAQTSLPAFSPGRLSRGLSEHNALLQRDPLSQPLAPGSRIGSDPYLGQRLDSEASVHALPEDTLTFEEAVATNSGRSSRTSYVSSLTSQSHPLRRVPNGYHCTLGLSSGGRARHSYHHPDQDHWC
- experimental protocol: In vitro inhibition of N-type calcium channels in IMR-32 cells.
Recorded measurements of log10(IC50), one per entry
property: log10(IC50) (log10 of the value in nM)

chemical smiles | log10(IC50)
CC(C)(C)OC(=O)N1CSC[C@H]1C(=O)N[C@@H](CSCC1CCCCC1)C(=O)NCc1ccc(O)cc1 | 3.26
COCC(=O)N1CSC[C@H]1C(=O)N[C@@H](CSCC1CCCCC1)C(=O)NCc1ccc(Oc2ccccc2)cc1 | 2.08
COC(=O)N1CSC[C@H]1C(=O)N[C@@H](CSCC1CCCCC1)C(=O)NCc1ccc(Oc2ccccc2)cc1 | 2.08
O=C(NCc1ccc(Oc2ccccc2)cc1)[C@H](CSCC1CCCCC1)NC(=O)[C@@H]1CSCN1CCO | 2.54
COCCN1CSC[C@H]1C(=O)N[C@@H](CSCC1CCCCC1)C(=O)NCc1ccc(Oc2ccccc2)cc1 | 2.30
COc1ccc(CNC(=O)[C@H](CSCC2CCCCC2)NC(=O)OCC(C)C)cc1 | 2.86
COc1ccc(CNC(=O)[C@@H](N)CSCC2CCCCC2)cc1 | 3.76
CC(C)(C)OC(=O)N1CSC[C@H]1C(=O)N[C@@H](CSCC1CCCCC1)C(=O)NCc1ccc(OCc2ccccc2)cc1 | 2.70

* * *

- assay system: Voltage-dependent N-type calcium channel subunit alpha-1B (Homo sapiens)
- experimental protocol: In vitro inhibition of N-type calcium channels in IMR-32 cells.
Recorded measurements of IC50, one per entry

chemical smiles | IC50 [nM]
C=CCOC(=O)N1CSC[C@H]1C(=O)N[C@@H](CSCC1CCCCC1)C(=O)NCc1ccc(Oc2ccccc2)cc1 | 330
COc1ccc(CNC(=O)[C@H](CSCC2CCCCC2)NC(=O)C2CCCCC2)cc1 | 1300
CC(C)(C)OC(=O)N1CSC[C@H]1C(=O)N[C@@H](CSCC1CCCCC1)C(=O)NCc1ccc([N+](=O)[O-])cc1 | 600
CC(C)COC(=O)N1CSC[C@H]1C(=O)N[C@@H](CSCC1CCCCC1)C(=O)NCc1ccc(Oc2ccccc2)cc1 | 360
COc1ccc(CNC(=O)[C@H](CSCC2CCCCC2)NC(=O)C2CCCC2)cc1 | 920
CN(C)c1ccc(CNC(=O)[C@H](CSCC2CCCCC2)NC(=O)[C@@H]2CSCN2C(=O)OC(C)(C)C)cc1 | 610
COc1ccc(CNC(=O)[C@H](CSCC2CCCCC2)NC(=O)CC(C)C)cc1 | 1200
COc1ccc(CNC(=O)[C@H](CSCC2CCCCC2)NC(=O)c2cscn2)cc1 | 1900
O=C(N[C@@H](CSCC1CCCCC1)C(=O)NCc1ccc(Oc2ccccc2)cc1)[C@@H]1CSCN1 | 290

* * *

- experimental protocol: In vitro inhibition of L-type calcium channels in AtT-20 cells.
- Format: functional, cell-based, Mus musculus
- measurement setup: att20
Recorded measurements of IC50, one per entry
property: IC50 (nM)

chemical smiles | property | unit annotation | numeric readout
COc1ccc(CNC(=O)[C@H](CSCC2CCCCC2)NC(=O)c2cscn2)cc1 | IC50 | nM | 2700
COc1ccc(CNC(=O)[C@H](CSCC2CCCCC2)NC(=O)CC(C)C)cc1 | IC50 | nM | 2700
COc1ccc(CNC(=O)[C@H](CSCC2CCCCC2)NC(=O)C2CCCCC2)cc1 | IC50 | nM | 1900
COc1ccc(CNC(=O)[C@H](CSCC2CCCCC2)NC(=O)OCC(C)C)cc1 | IC50 | nM | 1500
COc1ccc(CNC(=O)[C@H](CSCC2CCCCC2)NC(=O)C2CCCC2)cc1 | IC50 | nM | 2300

* * *

- Test system: L-type calcium channel (Mus musculus)
- experimental protocol: In vitro inhibition of L-type calcium channels in AtT-20 cells.
- measurement setup: att20
pIC50: −log10 of the molar value.

chemical smiles | assay system | pIC50
COC(=O)N1CSC[C@H]1C(=O)N[C@@H](CSCC1CCCCC1)C(=O)NCc1ccc(Oc2ccccc2)cc1 | L-type calcium channel (Mus musculus) | 6.06
CC(C)(C)OC(=O)N1CSC[C@H]1C(=O)N[C@@H](CSCC1CCCCC1)C(=O)NCc1ccc(O)cc1 | L-type calcium channel (Mus musculus) | 5.55
CC(C)(C)OC(=O)N1CSC[C@H]1C(=O)N[C@@H](CSCC1CCCCC1)C(=O)NCc1ccc([N+](=O)[O-])cc1 | L-type calcium channel (Mus musculus) | 6.30
O=C(NCc1ccc(Oc2ccccc2)cc1)[C@H](CSCC1CCCCC1)NC(=O)[C@@H]1CSCN1CCO | L-type calcium channel (Mus musculus) | 5.96

Where these numbers come from: ChEMBL document CHEMBL1135246
